Source of measurements: patent US20230278972A1

# Test system: galium (catchweed bedstraw, Galium aparine)
# ASSAY TEXT: Test A postemergence, galium
# Type: in vivo
# EXPERIMENTAL PARAMETERS: Postemergence, 1000 g ai/ha; visual injury, 0 to 100 scale (0 no effect, 100 complete control), approx. 10 days
# Excerpt: Seeds of plant species selected from barnyardgrass (Echinochloa crus-galli), kochia (Bassia scoparia), ragweed (common ragweed, Ambrosia artemisiifolia), Ryegrass, Italian (Italian ryegrass, Lolium multiflorum), Foxtail, Giant (giant foxtail, Setaria faberi), and pigweed (Amaranthus retroflexus) were planted into a blend of loam soil and sand and treated preemergence with a directed soil spray using test chemicals formulated in a non-phytotoxic solvent mixture which included a surfactant. […]
EXPERIMENTAL READOUT: Plant response rating, Galium
// return a plain number; no unit text

Cc1ccc(C(=O)N2CCC(C)CC2)cc1NS(=O)(=O)C(F)(F)F [Compound 7]; 40
COC(=O)C1CCN(C(=O)c2cc(NS(=O)(=O)C(F)(F)F)c(C)cc2C)CC1 [Compound 50]; 90
Cc1cc(C)c(N(S(=O)(=O)C(F)(F)F)S(=O)(=O)C(F)(F)F)cc1C(=O)N1CCSCC1 [Compound 5]; 90
Cc1cc(C)c(C(=O)N2CCC(F)CC2)cc1NS(=O)(=O)C(F)(F)F [Compound 8]; 20
Cc1ccc(C(=O)N2CCC(C(F)(F)F)CC2)cc1NS(=O)(=O)C(F)(F)F [Compound 263]; 60

Item: Cc1cc(C)c(C(=O)N2CCC(C#N)CC2)cc1NS(=O)(=O)C(F)(F)F [Compound 11] | Plant response rating, Galium: 90

====

# System: blackgrass (Alopecurus myosuroides)
# ASSAY TEXT: Test A1 preemergence, blackgrass
# Assay type: in vivo
# EXPERIMENTAL PARAMETERS: 125 g ai/ha, 0 to 100 scale, 0 no effect, 100 complete control
Catalogue of molecules with associated Plant response rating, Blackgrass
// return a plain number; no unit text

The reported blackgrass (Alopecurus myosuroides) Plant response rating, Blackgrass of Cc1cc(C)c(N(COC(=O)OC(C)(C)C)S(=O)(=O)C(F)(F)F)cc1C1=NOC2CCCC12 (stereo not drawn) is 0

====

# Test system: barnyardgrass (Echinochloa crus-galli)
# ASSAY TEXT: Test A postemergence, barnyardgrass
# Type: in vivo
# EXPERIMENTAL PARAMETERS: Postemergence, 125 g ai/ha; 0 to 100 scale (0 no effect, 100 complete control)
Catalogue of compounds with associated Plant response rating, Barnyardgrass
// return a plain number; no unit text

C#CCN(C)C(=O)c1cc(NS(=O)(=O)C(F)(F)F)c(C)c(F)c1C; 90
Cc1cc(Cl)c(C(=O)N2CCOCC2)cc1N(S(=O)(=O)C(F)(F)F)S(=O)(=O)C(F)(F)F; 20
Cc1cc(F)c(C(=O)N(C)C)cc1N(S(=O)(=O)C(F)(F)F)S(=O)(=O)C(F)(F)F; 0

Item: Cc1cc(C)c(C2=NOC3(C2)CC(C)OC(C)C3)cc1NS(=O)(=O)C(F)(F)F (single isomer, unassigned) | Plant response rating, Barnyardgrass: 80

Item: Cc1cc(Cl)c(C(=O)N2CCOCC2)cc1NS(=O)(=O)C(F)(F)F | Plant response rating, Barnyardgrass: 60

Item: Cc1cc(F)c(C(=O)N2CCC(C#N)CC2)cc1N(S(=O)(=O)C(F)(F)F)S(=O)(=O)C(F)(F)F | Plant response rating, Barnyardgrass: 0

Item: Cc1cc(Cl)c(NS(=O)(=O)C(F)(F)F)cc1C1=NOC2(CCCCC2)C1 | Plant response rating, Barnyardgrass: 30

Item: C#CCN(CC#C)C(=O)c1cc(NS(=O)(=O)C(F)(F)F)c(C)cc1C | Plant response rating, Barnyardgrass: 90

Item: Cc1cc(C)c(C2=NOC3CCCC23)cc1NS(=O)(=O)C(F)(F)F (centres unmarked) | Plant response rating, Barnyardgrass: 80

====

# System: pigweed (Amaranthus retroflexus)
# ASSAY TEXT: Test A preemergence, pigweed
# Format: in vivo
# EXPERIMENTAL PARAMETERS: 500 g ai/ha, 0 to 100 scale (0 no effect, 100 complete control)
Catalogue of compounds with associated Plant response rating, Pigweed
// return a plain number; no unit text

Cc1cc(C)c(-c2cc(C(C)C)nn(C)c2=O)cc1NS(=O)(=O)C(F)(F)F [Compound 41]; 0
Cc1cc(C)c(-n2nccc(C)c2=O)cc1NS(=O)(=O)C(F)(F)F [Compound 84]; 70
COC1(OC)CCN(C(=O)c2cc(NS(=O)(=O)C(F)(F)F)c(C)cc2C)CC1 [Compound 101]; 90
Cc1cc(C2CC2)c(NS(=O)(=O)C(F)(F)F)cc1C(=O)N1CCOCC1 [Compound 13]; 60
CCCn1nccc(-c2cc(NS(=O)(=O)C(F)(F)F)c(C)cc2C)c1=O [Compound 58]; 50
Cc1cc(C)c(C2=NOC(C)(C)C2)cc1NS(=O)(=O)C(F)(F)F [Compound 206]; 100
Cc1cc(C)c(N(S(=O)(=O)C(F)(F)F)S(=O)(=O)C(F)(F)F)cc1-c1cc(Br)nn(C)c1=O [Compound 67]; 80

From here, focus on the item given below.
Item: Cc1cc(C)c(C2=NOC3CCCCC23)cc1NS(=O)(=O)C(F)(F)F (centres unmarked) [Compound 123] | Plant response rating, Pigweed: 100

====

# Tested on: pigweed (Amaranthus retroflexus)
# ASSAY TEXT: Test A postemergence, pigweed
# Format: in vivo
# EXPERIMENTAL PARAMETERS: Amaranthus retroflexus, post-emergence, 240 h; Postemergence, 125 g ai/ha; visual injury approx. 10 days; 0 to 100 scale (0 no effect, 100 complete control); read-out: Plant response rating, Pigweed
Catalogue of molecules with associated pest or weed control at 125 g/ha
State just the number; it will be interpreted in %.

Cc1cc(C)c(C2=NOC3CCOCC23)cc1NS(=O)(=O)C(F)(F)F (stereo not shown); 60
Cc1cc(Cl)c(NS(=O)(=O)C(F)(F)F)cc1C(=O)N1CCOCC1; 70
Cc1cc(C)c(C2=NO[C@@H]3CCC[C@H]23)cc1NS(=O)(=O)C(F)(F)F; 80

From here, focus on the item given below.
Item: Cc1cc(C)c(C2=NOC3COCCC23)cc1NS(=O)(=O)C(F)(F)F (stereo not shown) | pest or weed control at 125 g/ha: 70

====

# Tested on: Foxtail, Giant (giant foxtail, Setaria faberi)
# ASSAY TEXT: Test A postemergence, Foxtail, Giant
# Type: in vivo
# EXPERIMENTAL PARAMETERS: Setaria faberi, post-emergence, 240 h; Postemergence, 500 g ai/ha; visual injury vs untreated controls after approx. 10 days; 0 to 100 scale (0 no effect, 100 complete control); read-out: Foxtail, Giant plant response rating
EXPERIMENTAL READOUT: pest or weed control at 500 g/ha (%)
State just the number; it will be interpreted in %.

Cc1c(NS(=O)(=O)C(F)(F)F)cc(C(=O)N2CCOCC2)c(C)c1F; 80
Cc1cc(C)c(C2=NOC3(CCCC3)C2)cc1NS(=O)(=O)C(F)(F)F; 90
Cc1cc(Cl)c(NS(=O)(=O)C(F)(F)F)cc1C(=O)N1CCC(F)(F)CC1; 90

From here, focus on the item given below.
Item: Cc1c(NS(=O)(=O)C(F)(F)F)cc(C(=O)N(C)C)c(C)c1F | pest or weed control at 500 g/ha: 50

====

# Tested on: soybean (Glycine max)
# ASSAY TEXT: Test A1 preemergence, soybean
# Format: in vivo
# EXPERIMENTAL PARAMETERS: 31 g ai/ha, 0 to 100 scale (0 no effect, 100 complete control)
Catalogue of molecules with associated Plant response rating, Soybean
// return a plain number; no unit text

Study these solved cases before continuing.
Cc1cc(C)c(N(C(=O)OCC(C)C)S(=O)(=O)C(F)(F)F)cc1C1=NOC2CCCC12 (stereo not shown) [Compound 299]; 0
Cc1cc(C)c(C2=NOC3CCCCCC23)cc1NS(=O)(=O)C(F)(F)F (stereo not shown) [Compound 292]; 0
CCC1ON=C(c2cc(N(COC(=O)C(C)(C)C)S(=O)(=O)C(F)(F)F)c(C)cc2C)C1CC (stereo not shown) [Compound 347]; 0

Item: Cc1cc(C2CC2)c(C2=NOC3CCCC23)cc1N(COC(=O)C(C)(C)C)S(=O)(=O)C(F)(F)F (stereo not shown) [Compound 355] | Plant response rating, Soybean: 20

Item: COC(=O)OCN(c1cc(C2=NOC3CCCC23)c(C)cc1C)S(=O)(=O)C(F)(F)F (stereo not shown) [Compound 315] | Plant response rating, Soybean: 40

Item: CCc1cc(C)c(C2=NOC3(CCCC3)C2)cc1NS(=O)(=O)C(F)(F)F [Compound 311] | Plant response rating, Soybean: 0

Item: Cc1c(C2=NO[C@@H]3CCC[C@H]23)cc(N(COC(=O)C(C)(C)C)S(=O)(=O)C(F)(F)F)c(C)c1C [Compound 336] | Plant response rating, Soybean: 0

Item: Cc1cc(C)c(N(COC(=O)C(C)(C)C)S(=O)(=O)C(F)(F)F)cc1C1=NOC2CCCCCC12 (single isomer, unassigned) [Compound 294] | Plant response rating, Soybean: 0

Item: Cc1cc(C)c(N2CCC3(CCC(C)CC3)C2=O)cc1NS(=O)(=O)C(F)(F)F (stereo not shown) [Compound 402] | Plant response rating, Soybean: 10

Item: COC1CCCN(C(=O)c2cc(NS(=O)(=O)C(F)(F)F)c(Cl)c(F)c2C)C1 (stereo not shown) [Compound 334] | Plant response rating, Soybean: 0

Item: Cc1cc(C)c(N(COC(=O)OC(C)C)S(=O)(=O)C(F)(F)F)cc1C1=NOC2CCCC12 (stereo not shown) [Compound 314] | Plant response rating, Soybean: 20
